Where do these numbers come from? They come from patent US5508311A.

# key: entry, value: IC50
Molecular target: monoamine oxidase
Test: Inhibition of rat liver monoamine oxidase deamination of dopamine (DA, mixed-type MAO A and B substrate) in vitro
Settings: substrate DA (5 × 10^-4 M), average of at least 3 independent experiments
Please state the figure in nM; there is no need to write the unit.

compound: C#CCN(C)C(C)CCCCC.Cl (stereo not drawn) [Example 2-HMP, hydrochloride]
unit.label: nM
IC50: 300

compound: C#CCN(C)C(C)CCCCCCCCCC.Cl (stereo not drawn) [Example 2-DdMP, N-(2-dodecyl)-N-methylpropargylamine-HCl]
unit.label: nM
IC50: 300

compound: C#CCN(C)C(C)CCC.Cl.O=C(O)C(=O)O (stereo not drawn) [Example M-2-PP, oxalate]
unit.label: nM
IC50: 6000

compound: C#CCN(C)[C@H](C)Cc1ccccc1 [Deprenyl]
unit.label: nM
IC50: 300

compound: C#CCN(C)C(C)CCCCCCCC.Cl (stereo not drawn) [Example 2-DMP, hydrochloride]
unit.label: nM
IC50: 200

IC50 recorded for this compound, C#CCN(C)C(C)C.Cl [Example 2-PrMP, hydrochloride] , is 30000

----------
Molecular target: MAO-B (Mus musculus)
Construct: MAO activities in the mouse brain after; from tissue
Test: MAO-B activity in the mouse brain after oral administration (substrate PE)
Assay type: in vivo
Conditions: mouse; oral, 2 hours; average of 5 animals per dose; estimated from dose response curves; read-out: Inhibition of MAO-B activity, dose response (ID50)
property.label: ED50 (mg/kg)
Please state the figure in mg/kg; there is no need to write the unit.

For orientation, consider the following solved cases.
molecule: C#CCN(C)C(C)CCCCCCCC.Cl (stereo not shown) [Example 2-DMP]
readout.number: 50
//
molecule: C#CCN(C)C(C)CCC.Cl.O=C(O)C(=O)O (stereo not shown) [Example M-2-PP]
readout.number: 1
//
molecule: C#CCN(C)C(C)CCCC.Cl (stereo not shown) [Example 2-HxMP]
readout.number: 1

Now for a further molecule.
C#CCN(C)CCCC.Cl [Example 1-BuMP] on MAO-B (Mus musculus) gives ED50 = 15

----------
Target: MAO-B (Mus musculus, UniProt Q8BW75)
Construct: MAO activities in the mouse brain after; from tissue
Sequence (Q8BW75 whole entry): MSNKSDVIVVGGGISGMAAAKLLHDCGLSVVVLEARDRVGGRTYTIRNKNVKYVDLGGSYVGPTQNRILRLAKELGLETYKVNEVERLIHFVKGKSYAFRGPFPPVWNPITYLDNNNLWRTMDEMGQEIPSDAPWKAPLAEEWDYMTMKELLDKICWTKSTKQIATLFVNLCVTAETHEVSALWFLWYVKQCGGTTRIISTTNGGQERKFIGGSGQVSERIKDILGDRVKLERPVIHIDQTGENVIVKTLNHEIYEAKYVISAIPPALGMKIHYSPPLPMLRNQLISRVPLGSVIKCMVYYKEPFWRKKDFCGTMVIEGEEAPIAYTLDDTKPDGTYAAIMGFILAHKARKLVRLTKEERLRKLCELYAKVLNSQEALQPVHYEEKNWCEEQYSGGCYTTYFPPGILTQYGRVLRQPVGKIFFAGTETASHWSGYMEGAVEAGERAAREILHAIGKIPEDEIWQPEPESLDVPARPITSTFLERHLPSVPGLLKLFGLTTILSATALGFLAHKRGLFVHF
Assay: in vivo
Type: in vivo
Settings: mouse, in vivo, ip, 120 min
Protocol: Albino Swiss mice were used in this study. The animals were injected intraperitoneally with different doses of the aliphatic propargylamines in 100 μL saline. 0.5, 1, 2, 5, 10, 20, 50, 100 mg/Kg. Striata were dissected from the brai two hours after i.p. administration of the drugs. MAOA and MAOB activitie were determined immediately. The values were estimated from doseresponse
property.label: Ratio MAO-A/MAO-B
Lab note: jot down the number only; don't add units.

For orientation, consider the following solved cases.
molecule: C#CCN(C)CCCCC.O=C(O)C(=O)O
Ratio MAO-A/MAO-B: 50
--
molecule: C#CCN(C)C(CC)CC.O=C(O)C(=O)O
Ratio MAO-A/MAO-B: 12

Ratio MAO-A/MAO-B recorded for this molecule, C#CCN(C)C(C)CCCCC.Cl (centres unmarked) , is 50

Ratio MAO-A/MAO-B recorded for this molecule, C#CCN(C)C(C)CCC.Cl.O=C(O)C(=O)O (centres unmarked) , is 50

Ratio MAO-A/MAO-B recorded for this molecule, C#CCN(C)C(C)CCCCCCCCCC.Cl (centres unmarked) [Example 2-DdMP, N-(2-dodecyl)-N-methylpropargylamine-HCl] , is 15
